Where do the numbers come from? From ChEMBL document CHEMBL5385969.

system: MDA-MB-231; experiment: cells; settings: Homo sapiens, MDA-MB-231, 48 h
Description: Antiproliferative activity against human MDA-MB-231 cells assessed as inhibition of cell growth incubated for 48 hrs by MTT assay
The label is t for IC50 below 10 µM and f for IC50 equal to or exceeding 10 µM.

Cc1c(-c2ccc(O)cc2)n(Cc2ccc(OCCN3CCCCCC3)cc2)c2ccc(O)cc12 [BAZEDOXIFENE] | t

Record Cc1ccc(Cn2cc(-c3nnn(Cc4ccccc4)n3)c3ccccc32)cc1 : is its IC50 strictly below 10 µM?
t

State whether 10 µM exceeds IC50 recorded for Cc1ccc(Cn2cc(-c3nnnn3Cc3ccccc3)c3ccccc32)cc1 .
t

Please state whether IC50 is below 10 µM for Cc1ccc(Cn2cc(-c3nnnn3Cc3cccc(Cl)c3)c3ccccc32)cc1
t

State whether 10 µM exceeds IC50 recorded for Clc1ccc(Cn2nnc(-c3cn(Cc4ccccc4)c4ccccc34)n2)cc1Cl .
f

Given Fc1ccc(Cn2nnc(-c3cn(Cc4ccccc4)c4ccccc34)n2)cc1 , is recorded IC50 strictly lower than 10 µM?
f

Input Cc1ccc(Cn2cc(-c3nnn(Cc4cccc(Cl)c4)n3)c3ccccc32)cc1 ; condition: IC50 strictly below 10 µM. Does it hold?
f

Regarding Cc1ccc(Cn2cc(-c3nnn(Cc4ccc(Cl)c(Cl)c4)n3)c3ccccc32)cc1 , kindly confirm whether its IC50 is beneath 10 µM.
f

Field: below-cutoff. Rule: recorded IC50 strictly less than 10 µM. Subject: Cc1ccc(Cn2nnc(-c3cn(Cc4ccc(C)cc4)c4ccccc34)n2)cc1
f

Report whether reported IC50 is lower than 10 µM (strictly) for c1ccc(Cn2cc(-c3nnn[nH]3)c3ccccc32)cc1
f

* * *

Form field: IC50 (one value per entry).
tested on: MDA-MB-231; assay: cells; conditions: Homo sapiens, MDA-MB-231, 48 h
Form entry: value (µM) — number only.

Use these answered entries as a reference point.
Cc1ccc(Cn2cc(-c3nnn[nH]3)c3ccccc32)cc1 | 13.8
Clc1cccc(Cn2nnc(-c3cn(Cc4ccccc4)c4ccccc34)n2)c1 | 18.8

Please report IC50 for the following compound: Cc1ccc(Cn2cc(-c3nnn(Cc4ccc(Cl)cc4)n3)c3ccccc32)cc1
11.6

* * *

tested on: MDA-MB-231; experiment: cells; conditions: Homo sapiens, MDA-MB-231, 48 h
List of IC50 values.

Cc1ccc(Cn2nnnc2-c2cn(Cc3ccc(C)cc3)c3ccccc23)cc1 | 9.72 µM

Let me know recorded IC50 for c1ccc(Cn2nnc(-c3cn(Cc4ccccc4)c4ccccc34)n2)cc1 , thanks.
14.7 µM

Provide measured IC50 value, entry: Cc1ccc(Cn2cc(-c3nnnn3Cc3ccc(Cl)c(Cl)c3)c3ccccc32)cc1
12.4 µM

Note down IC50 recorded for COc1cccc(Cn2nnc(-c3cn(Cc4ccc(C)cc4)c4ccccc34)n2)c1
12.1 µM

Check the records and state IC50 for Cc1ccc(Cn2cc(-c3nnn(Cc4ccc(Cl)cc4Cl)n3)c3ccccc32)cc1
16.7 µM

* * *

tested on: MDA-MB-231; assay: cells; conditions: Homo sapiens, MDA-MB-231, 48 h
quantity.measured: IC50 (µM)
API: value field is a number in µM; no unit string.

Take a look at these entries with their results.
Clc1ccc(Cn2nnc(-c3cn(Cc4ccccc4)c4ccccc34)n2)c(Cl)c1 | 7.69
Cc1ccc(Cn2cc(-c3nnnn3Cc3ccc(Cl)cc3Cl)c3ccccc32)cc1 | 11.2
Clc1ccc(Cn2nnc(-c3cn(Cc4ccccc4)c4ccccc34)n2)cc1 | 15.7
COc1cccc(Cn2nnc(-c3cn(Cc4ccccc4)c4ccccc34)n2)c1 | 15.9
Cc1ccc(Cn2cc(-c3nnn(Cc4ccc(F)cc4)n3)c3ccccc32)cc1 | 13.1

Turning now to a further compound:
# return IC50 for Cc1ccc(Cn2nnc(-c3cn(Cc4ccccc4)c4ccccc34)n2)cc1 , test system: MDA-MB-231
13.4
